study_system: T1, soluble gp68 ectodomain, V5-His tagged (sgp68-V5-His) (HCMV strain AD169, UniProt P16739 24-292)
T1 construct: V5 and His tags are in the entry; also called sol gp68; sgp68wt
assay_procedure: ELISA

binder: gp68.02 (antibody, V domains shown, mouse IgG1 hybridoma mAb; leader in entries) VH: EVKLLQSGPELVKPGSSVKISCKASGYSFADHIILWVKQSHGKSLEWIGNINPYSGNTIYNLNFKGKATLTVDKSSSTAYMQLNSLTSEDSAVYYCARIEGYYSMDYWGQGTSVTVSS VL: DIVLTQTPLSLPVSLGDQASISCRSSQSIVHSNGNTYLEWYLQKPGQSPKVLIYKVSKRFSGVPDRFSGSGSGTDFTLKISRVEAEDMGVYYCFQGSHVPLTFGAGTKLELK
binding result: binds
--
binder: gp68.01 (antibody, V domains shown, mouse IgG1 hybridoma mAb; leader in entries) VH: EVKLLESGPELVKPGSSVKISCKASGYSFADHIILWVKQSHGKSLEWIGNINPYSGNTIYNLNFKGKATLTVDKSSSTAYMQLNSLTSEDSAVYYCARIEGYYSMDYWGQGTSVTVSS VL: DIVMTQTPLSLPVSLGDQASISCRSSQSIVHSNGNTYLEWYLQKPGQSPKVLIYKVSKRFSGVPDRFSGSGSGTDFTLKISRVEAEDMGVYYCFQGSHVPLTFGAGTKLELK
binding result: binds
--
binder: gp68.05 (antibody, V domains shown, mouse IgG1 hybridoma mAb; leader in entries; also called anti gp68 clone 68.05) VH: QVKLEESGAELMKPGASVKISCTATGYTFSGYWIEWVKQRPGHGLEWIGEILPGSGGTNYNEKFKGKATFTADTSSNTAYMQLSSLTSEDSAVYYCARGIHYFGYYYFDYWGQGTTLTVSSAKTTPPSVY VL: DIVLTQTPSSLSASLGDRVTISCRASQDISNYLNWYQLKPDGTVKLLIYYTSRLHSGVPSRFSGSGSGTDYSLTISNLEQEDIATYFCQQGNTLPPTFGGGTKLEIKRADAAPTVS
binding result: binds
--
binder: gp68.06 (antibody, V domains shown, mouse IgG1 hybridoma mAb; leader in entries; also called anti gp68 clone 68.06) VH: QVKLEQSGAELMKPGASVKISCTATGYTFSGYWIEWVKQRPGHGLEWIGEILPGSGGTNYNEKFKGKATFTADTSSNTAYMQLSSLTSEDSAVYYCARGIHYFGYYYFDYWGQGTTLTVSSAKTTPPSVY VL: DIVLTQSPSSLSASLGDRVTISCRASQDISNYLNWYQLKPDGTVKLLIYYTSRLHSGVPSRFSGSGSGTDYSLTINNLEQEDIATYFCQQGNTLPPTFGGGTKLEIKRADAAPTVS
binding result: binds
